- System: CUG-RNA foci in DM1 myoblasts
- assay-details: FISH analysis of nuclear CUG-RNA foci in DM1 myoblasts
- Format: cell-based, human
- experimental-conditions: Table 1, 10 μM, 4 days, FISH
Quick rule: # of Foci (percentage) >2: Percentage of cells with 2 or greater nuclear foci of at least 70 percentage means yes (1), below that means no (0).

Task: Determine whether measured # of Foci (percentage) >2: Percentage of cells with 2 or greater nuclear foci meets or exceeds 70 percentage for CCCCCCc1cc2cc(-c3nnc(-c4cccc(OC)c4)o3)c(=O)oc2cc1O
Result: no (0)

Task: Quick check, # of Foci (percentage) >2: Percentage of cells with 2 or greater nuclear foci >= 70 percentage? CCN(CC)c1ccc2cc(-c3nnc(-c4ccc(Cl)cc4)o3)c(=O)oc2c1
Result: yes (1)

Task: Dear colleague, could you confirm whether CCCCCCc1cc2cc(C(=O)Nc3cccc(OC)c3)c(=O)oc2cc1O has # of Foci (percentage) >2: Percentage of cells with 2 or greater nuclear foci at or above 70 percentage?
Result: yes (1)

Task: In plain terms: is recorded # of Foci (percentage) >2: Percentage of cells with 2 or greater nuclear foci at least 70 percentage for CCCCCCc1cc2cc(-c3nnc(-c4ccc([N+](=O)[O-])cc4)o3)c(=O)oc2cc1O ?
Result: yes (1)
